experiment: yeast display, Sf9 membrane polyspecificity reagent, FACS + sequencing; frameworks hold sequencing errors
EXPERIMENTAL_READOUT: polyreactivity (PSR sort gate)

Req: What polyreactivity (PSR sort gate) value was documented for this sequence, QVQLVESGGGLVQAGGSLSLSCAASGRTFIRNAMGWYRQAPRKEREVVAAINSCGITNYADSVNGRFTISRDNAKNTVDLQMNSLKPEDTAVYYCANTFQYYWFSLYDYWGQGTQVTVSS ?
Resp: low polyreactivity

Req: For the sequence QVQLVESGGGLVQAGGSLRLSCAASGSIFRGNALGWYRQAPGKERELFAAISKSGGSTYYADSVKGRFTISRDNAKNTVDLEMNSLKPEDTAVYYCAARTTYLYGMYYWGQGTQVTVSS , what polyreactivity (PSR sort gate) is on record?
Resp: low polyreactivity

Req: Return reported polyreactivity (PSR sort gate); argument: QVQLVESGGGLVQAGGSLRLSCAASGRTFSTYAMGWCRQAPGKERELVAAISRRGGSTYYADSVKGRFTISRDNAKYTVYLQMNSLKPEDTAVYYGAADSYDSDVNEYDYWGQGTQVTVSS
Resp: high polyreactivity

Req: Quick one: polyreactivity (PSR sort gate) of QVQLVDSGGCLVQAGGSLRLSCAASGSTFPTYAMGWYRQAPGKERELVAAITWSGGSTYYADSVKGRFTISRDNAKNTVYLQMNSLKPEDTAVYYCADSAYVQPYDYWGQGTQVTVSS ?
Resp: high polyreactivity

Req: Returns the measured polyreactivity (PSR sort gate) for the input sequence. Input: QVQLVETGGGLVQAGGSLRLSCAASGFTFYNNAMGWYGQAPGKERELGAVITSNGGRTYYADSVKGRFTISRDNAKNTVYLQMNSLKPEDTAVYYCAKDYKAMYLYHYRISGGDVDYWGQGTQVTVSS
Resp: low polyreactivity

Req: Look up polyreactivity (PSR sort gate): QVQLVESGGVLVQAGGSLRLSCAASGSIFGSYTMGWYRQAPGKEREMVAAISGGGASTYYADSVKGRFTISRDNAKNTVYLQMNSLKPEDTAVYYCYKRGVIERRKPWHYSTFDYWGQGTQVTVSS
Resp: low polyreactivity

Req: Query: polyreactivity (PSR sort gate); subject: QVQLVESGGGLVQAGGSLRLSCAASGSTIGFYAMGWYRQAPGKERELVAVISSSSSTNYADSVKGRFTISRDNAKNTVYLQMNSLKPKIPAVYYCNAKWTTLFDYWGQGTQVTVSS
Resp: high polyreactivity

Req: Given the sequence QVQLVESGGGLVQAGGSLRLSCAASGRTVSNYAMGWSRQAPGKERELVSAISTGGTSTYYADSVKGRFTISRDYAKNTVYLQMNSLKPEDTAVYYCIAVGGWVTHWLLREGDYWGQGTQVTVSS , what is its reported polyreactivity (PSR sort gate)?
Resp: low polyreactivity

Count: 3. Required value per item: polyreactivity (PSR sort gate).
1. QVQLVESGGGLVQAGGSLRLSCAASGSIFIVNDMGWYRQAPGKERELVAAISGRGGNTNYADSVKVRFTISRDNAKNTVYLQMNSLKPEDTSVYFCAARHTRDYDYWGQGTQVTVSS
2. QVQLVESGAGLVQAGGSLRLSCAASGSTFVINAMGWYRQPPGKEREFVADIDYRGGSTNYADSVKGRFTISHDNAKNTFYLQMNSLKPEDTAVYYCAAARVTIRSSHWSVDYWGQGTQVTVSS
3. QVQLVESGGGLVQAGGSLRLSCAASGFTSWHNDMGRYRQATGKERELVAAIDTGTGTYYADSVKGRFTISRDNAKNTVYLQLYSLKPEDTAVYYCAKDDLLVVRIVWFDYWGLGTQVTVSS

Resp:
1. high polyreactivity
2. low polyreactivity
3. low polyreactivity
